# Tested on: THRa:RXRa (NR concentration 90 nM, RXRa partner concentration 90 nM)
# protocol: PBM binding z-score (relative to random genomic background probes); higher = stronger binding; sequences stand for … in GC…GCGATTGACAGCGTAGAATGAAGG
Response key: yes means PBM binding z-score >= 2; no means PBM binding z-score < 2.

Ask | State whether the measured PBM binding z-score reaches 2, counting equality as reaching it, for TCGAGTAGGTTACCAATGCGGCATTCAGCTTTCT
Reply | no

Ask | PBM binding z-score >= 2 for CCTCGGAGGACAGAAGGTCAGCGCTGTCCGCTTT ?
Reply | yes

Ask | Is it the case that CCTCGGAGGACAACAGGAGGACAGAGCTGCCAGA has PBM binding z-score reaching or exceeding 2?
Reply | no

Ask | Does CCTCGGAGGACAACACGAGGTCAGAGCTGCCAGA have a reported PBM binding z-score of at least 2?
Reply | yes

Ask | Item CCTACTGGGCCAAATAGGTCATTGATGCCGATAA with PBM binding z-score of 2 or above?
Reply | no

Ask | Entry CCTTACGGGTCACCAGGTTATAGCACGACGAGCG : is its PBM binding z-score no less than 2?
Reply | yes

---
Ask | Given the entry TCATATGGGTAAACAGGTGAAAGTCCGTAAGTTA , answer whether its PBM binding z-score meets or surpasses 2.
Reply | no

Ask | State whether the measured PBM binding z-score reaches 2, counting equality as reaching it, for TCGCCTAGGTCAGATCGGGCCAGTATACGCTATA
Reply | yes

Ask | Quick check: does AGTCAAATTTCAGGACGAGGTAACGTAAAGCACG have PBM binding z-score greater than or equal to 2?
Reply | yes

Ask | Identify whether the reported PBM binding z-score of the following sequence is 2 or greater: CCGACTGGGGCAGAAAGGTTACCGTACCATCCGG
Reply | no

Ask | Entry CCTACTGGGCCATCAGGTCACTGATATCAACGTT : is its PBM binding z-score no less than 2?
Reply | yes

Ask | In plain terms: is recorded PBM binding z-score at least 2 for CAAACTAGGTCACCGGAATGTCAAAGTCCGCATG ?
Reply | yes

----------
# Tested on: THRa homodimer (NR concentration 90 nM)
# protocol: PBM binding z-score (relative to random genomic background probes); higher = stronger binding; sequences stand for … in GC…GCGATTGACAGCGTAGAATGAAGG
readout kind: PBM binding z-score
Form rule: numeric answer, no unit written next to it.

Sample answers from the record:
Looking up TTACCAAGGTTAAGGTCGTTGATCCCTCTGTAGA , I see its PBM binding z-score listed as 3.45

response.value for TGAATGAGGTTATAAGATCAGGGTACGTTGCAAA (field: PBM binding z-score) = 0.622

Lookup result for TCATATAGGTAAAAGGTGAAAGTTGGTGTGGTAA ; measured PBM binding z-score: 0.96

Entry under test: GGAACGAGGGCATTCGAATTGATAGCATGGCGAT . Its PBM binding z-score was -0.231

Sure, the documented PBM binding z-score for CCTAGCAGGCCAATCTGGGTCACGCAAGGCTTGA is 0.767

GET /value?item= ATTATTAGTTGAGACGAGGGCAACCGATAGGTTG &field=PBM binding z-score returns 0.878

Form field PBM binding z-score, entry TCTATTAGTTGAATAGGGCAACCGAAACAGCGGA : -0.423

Measured PBM binding z-score, TATACAGGGCCAAAGGCCAGAGTACGAATGTCGA : -0.814

The sequence identified as CAAACTACGTCAAGGTCAAAGTCGGTTTGTGCCA registered its PBM binding z-score at 3.63

Input CGAACTAGGTCACCGGAAGGTCAAAGTCCGCATG . Output PBM binding z-score: 2.81

***
Memo: CCTGCTAGGTCATGGTCAGCTAATCTACAGTATG , reported PBM binding z-score: 1.39

For reference, reported PBM binding z-score for AGTCAAAGTTCAGGACGCGGTAACGTAAAGCACG stands at 1.23

----------
# Test system: PXR homodimer (NR concentration 270 nM)
# protocol: PBM binding z-score (relative to random genomic background probes); higher = stronger binding; sequences stand for … in GC…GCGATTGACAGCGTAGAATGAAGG
Quick rule for you: PBM binding z-score at 0.5 or higher means 1, lower means -1.

Here are 5 sequences together with their reported answers.
Ask | Would you say TCTTGTAGATCAACAGGAGGGTAAGAAAGATCGA shows PBM binding z-score at minimum 0.5?
Reply | -1

Ask | Reported PBM binding z-score reaches at least 0.5 for ATCTCTAGGTAATAAGTTCAGTGAAAGAGAGGAC ?
Reply | 1

Ask | Is PBM binding z-score at least 0.5? Consider CCTCGGAGGACAACAGAAGGTCAGAGCTGCCAGA
Reply | -1

Ask | Is PBM binding z-score for TAGCCTAGGTCATTGGGCCAGCATAGTACGCATC at or above 0.5?
Reply | -1

Ask | Tell me whether PBM binding z-score is at least 0.5 here: ACTATCAGTTGACTTAGGGCAACCGATACGACGC
Reply | -1

Continuing:
Ask | Kindly determine if PBM binding z-score recorded for CGTCCAGGGTCAAGGTCAGTGAAAGAGACTCGAA is above or exactly 0.5.
Reply | 1

Ask | Is PBM binding z-score for GCAGACAGGTGAAACGCAGGTAACTTAGGGTGGC at or above 0.5?
Reply | -1

Ask | Does PBM binding z-score meet or surpass 0.5 for TGTCAAAGTTCAAAGGTAACTTAAGTATCCACAC ?
Reply | 1

Ask | Is PBM binding z-score for ACTCGGAGGACGAAGGTCAGAGCTACGCCAGTGA at or above 0.5?
Reply | -1

Ask | In plain terms: is recorded PBM binding z-score at least 0.5 for TCATATAGGTAAATGGTGAAAGTCGGTGTGGTAA ?
Reply | 1

Ask | Test whether the sequence GCTTGTAGAACAAGGTTAAGAAAGACTAAGCTAA records PBM binding z-score of 0.5 or higher.
Reply | -1

----------
# Tested on: PPARg:RXRa 270nM:90nM, anti-RXR (NR concentration 270 nM, RXRa partner concentration 90 nM)
# protocol: PBM binding z-score (relative to random genomic background probes); higher = stronger binding; sequences stand for … in GC…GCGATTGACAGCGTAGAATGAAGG
readout kind: PBM binding z-score
No unit in the answer, please; the number alone is enough.

PBM binding z-score reading for ACAGACAGGTGATGAAGGTAACCCAGGCTATCAT : 0.0501

The recorded PBM binding z-score for entry CTTACTGGGCCAAAAAGGTCATTGATGCCGATAA equals 5.24

response.value for CAAACTAGGTTAAGAGGTCAAAGTCCGCTTCCCG (field: PBM binding z-score) = 7.23

Lab note: GCTGCTAGGTCATCTGATGGTCAGCTAAAGCTCG gave PBM binding z-score of 2.82

Query CCTCGGAGGACAGAAGGTCAGAGTTGTCCGCTTT yields PBM binding z-score of 0.907

For CGTCCAAGGTCATAGGAGGCCAGTGAAGACAGAT the sequence record lists PBM binding z-score as 5.03

So, TCATATAGGTAAATGCGAGGTGAAAGTCCGATCT ? Its PBM binding z-score was 2.53

Lab note: measured PBM binding z-score of CGTCCAAGGTCAGCAGGTCAGTCAAAGCGACGTG was 4.59

Measured PBM binding z-score of CCGAGTAGGTTAAGGGGCATTCAGGCAACGGTGA : 6.42

Entry under test: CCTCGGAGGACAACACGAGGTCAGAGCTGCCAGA . Its PBM binding z-score was 0.153

New cases:
Per the record, TCTTGTAGATCAGCAGGTTAAGACAGCTGGCCAA has PBM binding z-score of 1.46

Entry ATCTCCAGGTAAAGATAGTTCAGTGAATGCAAAT — recorded PBM binding z-score = 0.28

----------
# Tested on: THRa:RXRa (NR concentration 90 nM, RXRa partner concentration 90 nM)
# protocol: PBM binding z-score (relative to random genomic background probes); higher = stronger binding; sequences stand for … in GC…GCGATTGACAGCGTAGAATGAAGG
Mark FALSE for PBM binding z-score values under 4, and TRUE for everything at or above.

Ask | Kindly determine if PBM binding z-score recorded for TCATATAGCTAAAGGTGAAAGTCGAACGATATGA is above or exactly 4.
Reply | FALSE

Ask | Dear colleague, could you confirm whether TCTTGTAGATCATGCAGGTTAAGAAAGCCTGAGT has PBM binding z-score at or above 4?
Reply | FALSE

Ask | Say whether GCTCGGAGGACAGGGTCAGAGCTTTGTCCGTAGA shows PBM binding z-score of 4 or more.
Reply | FALSE

Ask | Hi team, for GGTAGTTGGTCAGTAAAAGGTCACACACCGGTCG , is the recorded PBM binding z-score at or above 4?
Reply | FALSE
